For each record, write down the corresponding Lethal dose.
Tested on: zebrafish larvae
assay_overview: Zebrafish larval toxicity (NOEC, lethal dose)
Type: in vivo
settings: 7 dpf zebrafish larvae, up to 5 h treatment

Short answer please: Lethal dose, zebrafish larvae, entry O=C(NO)C(c1ccccc1)c1ccccc1 [Diphenyl acetic hydroxamic acid (dPAHA), diphenyl acetic hydroxamic acid]
0.01 mM

Proceed to CN1CCc2c(c3ccccc3n2Cc2ccc(C(=O)NO)cc2)C1 [Tubastatin A (Tub A), Tubastatin A]
>0.012 mM

Proceed to O=C1C=C(NCc2ccccc2)C(=O)c2ccccc21 [Compound 2j, 2-(benzylamino)naphthalene-1,4-dione]
0.012 mM

Proceed to O=C(CCCCCCC(=O)Nc1ccccc1)NO [Suberoylanilide hydroxamic acid (SAHA), suberoylanilide hydroxamic acid]
>0.015 mM

Proceed to C#CCNC1=CC(=O)c2ccccc2C1=O [Compound 2h]
>0.02 mM

Proceed to O=C1C=C(NCc2cccc(Cl)c2)C(=O)c2ccccc21 [Compound 2q]
>0.02 mM

Proceed to O=C(NC1=CC(=O)c2ccccc2C1=O)c1ccccc1 [2-benzoylamino-1,4-naphthoquinone]
0.005 mM

Proceed to CCCC(CCC)C(=O)NO [2-propylpentane hydroxamic acid (VPHA), 2-propylpentane hydroxamic acid]
>0.05 mM

Proceed to CC1=CC(=O)c2ccccc2C1=O [VK3, menadione, reference compound]
0.007 mM

---

assay_overview: In vitro neurotoxicity without glutamate (MTS cell viability)
Assay type: cell-based, mouse
settings: mouse; HT22 cells without glutamate, 24 hrs, MTS; concentration producing 50% toxicity; read-out: Toxicity TC50
Method: The HT22 neuronal cell line is a subclone of HT4, derived from the mouse hippocampus (Morimoto and Koshland, 1990). […] HT22 cells were used. […] Cell viability was assessed by the ability of the viable cells to metabolize 3-(4,5-dimethylthiazol-2-yl)-5-(3-carboxymethoxyphenyl)-2(4-sulfophenyl)2-H-tetrazolium, inner salt (MTS), as described previously (Cory et al., 1991). […] Absorbance at 490 nm was subsequently measured by a SpectraMax 190 plate reader (Molecular Devices). […]
observed_property: CC50 at 24 h

I am curious: what CC50 at 24 h value has been reported for "O=C(NCc1ccccc1)NC1=CC(=O)c2ccccc2C1=O" ?
> 100 µM

Proceed to "CC(=O)NC1=CC(=O)c2ccccc2C1=O"
> 100 µM

Proceed to "CCNC(=O)NC1=CC(=O)c2ccccc2C1=O"
5 µM

Proceed to "O=C(Cc1ccccc1)NC1=CC(=O)c2ccccc2C1=O"
32 µM

Proceed to "CCC(=O)NC1=CC(=O)c2ccccc2C1=O"
80 µM

Proceed to "COC(=O)NC1=CC(=O)c2ccccc2C1=O"
5 µM

---

System: HT22 cells
assay_overview: In vitro neuroprotective activity against glutamate-induced cell death (MTS cell viability)
Type: cell-based, mouse
settings: Mus musculus, HT-22; HT22 cells, 10 mM glutamate, 24 hrs, MTS; concentration producing 50% protection; read-out: Protection PC50
Simple rule here: EC50 less than 200 nM is MET, otherwise NOT MET.

Consider O=C1C=CC(=O)c2ccccc21 [Compound 1a, 1,4-naphthoquinone, reference compound] . Does its EC50 lie strictly below 200 nM?
NOT MET

Proceed to O=C1C=C(NCc2cccnc2)C(=O)c2ccccc21 [Compound 2n]
NOT MET

Proceed to COc1ccc(CNC2=CC(=O)c3ccccc3C2=O)cc1 [Compound 2s]
MET

Proceed to CCNC(=O)NC1=CC(=O)c2ccccc2C1=O [Compound 4a]
MET

Proceed to O=C(O)C1=CC(=O)c2ccccc2C1=O [Compound 1f]
NOT MET
